These data points were gathered from ChEMBL document CHEMBL4418497.

# study.system: Serine hydroxymethyltransferase, mitochondrial (Homo sapiens) (UniProt P34897)
# experiment.summary: Inhibition of His-tagged human recombinant SHMT2 expressed in Escherichia coli BLR(DE3) assessed as reduction in NADPH level using L-serine, THF and NADP+ at 6.5 or 26.5 uM incubated for 5 mins by SHMT2-MTHFD coupled reaction based fluorescence assay relative to control
experimental.readout: inhibition

Query :: Recorded inhibition for `Fc1ccc(COc2ccc(-c3nnco3)cc2)cc1` , please?
Result :: 53.7%

Query :: Would you kindly share the measured inhibition for `CC(=O)N[C@H]1CN2CC[C@H](O)[C@@H]2[C@@H](O)[C@@H]1O` ?
Result :: 63.8%

Query :: Please give the measured inhibition for this molecule: `COC(=O)[C@@H](c1ccc2sccc2c1)c1ccccc1Cl`
Result :: 53.3%

---

# study.system: Serine hydroxymethyltransferase, mitochondrial (Homo sapiens)
# Sequence (P34897 whole entry): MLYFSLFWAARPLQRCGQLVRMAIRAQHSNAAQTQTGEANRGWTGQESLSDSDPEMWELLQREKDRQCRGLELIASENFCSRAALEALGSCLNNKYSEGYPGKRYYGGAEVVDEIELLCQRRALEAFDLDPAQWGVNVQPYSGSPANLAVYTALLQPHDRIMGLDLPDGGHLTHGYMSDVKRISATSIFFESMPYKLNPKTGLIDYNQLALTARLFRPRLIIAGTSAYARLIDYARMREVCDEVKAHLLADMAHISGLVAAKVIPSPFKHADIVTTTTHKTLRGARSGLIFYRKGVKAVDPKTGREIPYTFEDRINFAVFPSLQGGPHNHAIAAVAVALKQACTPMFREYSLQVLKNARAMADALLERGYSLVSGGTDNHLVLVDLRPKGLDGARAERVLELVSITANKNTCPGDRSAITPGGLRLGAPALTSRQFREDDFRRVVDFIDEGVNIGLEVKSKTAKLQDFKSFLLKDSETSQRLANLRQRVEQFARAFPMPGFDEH
# experiment.summary: Inhibition of His-tagged human recombinant SHMT2 expressed in Escherichia coli BLR(DE3) assessed as reduction in NADPH level using L-serine, THF and NADP+ incubated for 5 mins by SHMT2-MTHFD coupled reaction based fluorescence assay
# condition.parameters: read-out: IC50
Can you tell me pIC50 for the items I'm about to list?
Note on pIC50: it is the negative log10 of concentration, concentration in mol/L.

Query :: If you can, please state the reported pIC50 value of `COc1ccc(OC)c(NS(=O)(=O)c2cc(-c3cc(C)no3)ccc2C(C)C)c1` .
Result :: 5.41

Query :: // pIC50 lookup, key: `COc1cc(NC(=O)N2CCSc3ncccc32)cc(OC)c1`
Result :: 5.59

Query :: So what's the measured pIC50 for this one? `COc1ccc(Nc2nnc(Cc3ccncc3)c3ccccc23)c(OC)c1`
Result :: 5.41

Query :: So what does the record say about pIC50 for CCOC(=O)C1CCCN(C(=O)Nc2cn(C)c(=O)c3ccccc23)C1 (centres undefined) ?
Result :: 5.19

Query :: Entry `CC(C)Cn1cc(NC(=O)Nc2ccccn2)c2ccccc2c1=O` : reported pIC50 = ?
Result :: 5.48

Query :: # pIC50 lookup, item `CC(C)CCNC(=O)CSc1nc2ncccc2o1`
Result :: 5.60

Query :: Quick one: pIC50 of `Cn1cc(NC(=O)NCc2cccnc2)c2ccccc2c1=O` ?
Result :: 5.24

Query :: # query: pIC50 of entry `CCC(=O)Nc1cc(F)c2nc(N3CCOCC3)ccc2c1`
Result :: 5.81

Query :: Please look up its pIC50: `COc1ccc(-c2nc3c4nsnc4ccc3n2C)cc1Br`
Result :: 6.27

Query :: Given CCOC(=O)C1CCCN(c2cc(C(=O)O)c3cc(N)ccc3n2)C1 (centres undefined) , state its recorded pIC50.
Result :: 5.26

Query :: What value of pIC50 has been recorded for this entry: `COCCN1CCn2c(nc3cc(NC(=O)NC4CCCCC4)ccc32)C1`
Result :: 5.29

Query :: What value of measured pIC50 is listed for `Cc1nc(SCC(=O)Nc2cccc3nsnc23)oc1C` ?
Result :: 5.60

Query :: Which pIC50 value belongs to `CCC(CC)C(=O)Nc1cc(F)c2nc(N3CCOCC3)ccc2c1` ?
Result :: 5.29

Query :: Value lookup for pIC50; key = `COc1ccc(OC)c(NC(=O)N2CCN(S(=O)(=O)c3ccc4c(ccn4C)c3)CC2)c1`
Result :: 5.49
